test.target: T1, FOXN1 1-614 (human, UniProt O15353 1-614)
T1 sequence: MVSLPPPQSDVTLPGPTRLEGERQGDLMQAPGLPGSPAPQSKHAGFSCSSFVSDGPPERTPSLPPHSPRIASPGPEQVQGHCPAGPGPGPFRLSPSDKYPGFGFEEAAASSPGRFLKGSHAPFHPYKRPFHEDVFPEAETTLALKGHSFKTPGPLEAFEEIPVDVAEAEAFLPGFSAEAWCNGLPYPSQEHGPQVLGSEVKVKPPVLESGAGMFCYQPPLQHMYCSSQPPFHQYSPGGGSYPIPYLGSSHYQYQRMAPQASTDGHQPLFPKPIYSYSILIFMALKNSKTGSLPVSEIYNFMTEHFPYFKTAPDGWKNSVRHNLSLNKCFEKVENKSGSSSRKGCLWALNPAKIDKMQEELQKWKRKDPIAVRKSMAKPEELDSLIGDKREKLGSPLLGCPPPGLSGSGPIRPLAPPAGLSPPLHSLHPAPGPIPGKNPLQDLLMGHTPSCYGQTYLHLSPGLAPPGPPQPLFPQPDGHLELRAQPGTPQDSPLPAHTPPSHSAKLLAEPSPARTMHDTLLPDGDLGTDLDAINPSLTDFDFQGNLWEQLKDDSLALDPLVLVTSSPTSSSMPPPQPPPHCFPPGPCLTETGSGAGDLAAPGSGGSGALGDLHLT
assay.text: EMSA; apparent Kd; EMSA: 50 mM Tris-HCl pH 7.5, 25 mM NaCl, 0.5 mM EDTA, 0.1% Tween 20, 2 mM DTT, 5% glycerol, 30 min room temperature; FP: 10 mM HEPES pH 7.5, 50 mM NaCl, 1 mM TCEP, 10 nM probe
recorded.conditions: protein: recombinant; tags: His tag (pNIC28-Bsa4), cleaved with TEV; label: 32P on forward strand (5', T4 PNK); blunt
pKd: −log10 of the molar value.
recorded.metric: pKd

tandem FKH EMSA probe (dsDNA) DNA 1: AGCATAAACAACAGAGCGATAAACCAGG DNA 2: CCTGGTTTATCGCTCTGTTGTTTATGCT | 6.69
